The measurements presented in this section are drawn from patent US20240293558A1.

- Measured target: KRas G12D fused to HiBiT peptide (Homo sapiens, UniProt P01116, G12D)
- Construct: endogenous in cells; host or cells: AsPC-1 HiBiT knock-in single clone (Cas9 RNP + ssODN)
- Sequence (P01116 1-188 isoform P01116-2 G12D): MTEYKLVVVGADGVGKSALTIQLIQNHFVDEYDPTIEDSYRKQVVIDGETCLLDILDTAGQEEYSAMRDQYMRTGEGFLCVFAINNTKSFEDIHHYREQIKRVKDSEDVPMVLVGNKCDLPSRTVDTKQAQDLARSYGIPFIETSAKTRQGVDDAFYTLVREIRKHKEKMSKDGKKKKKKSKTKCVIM
- Experimental details: ASPC-1 HiBit assay to determine G12D degradation
- Assay type: cell-based
- Measurement conditions: AsPC-1 HiBiT cells, 24-hour incubation; read-out: ASPC-1 HiBit DC50 (C)
Entries and their DC50
# do not omit the unit; it follows the number

C#Cc1c(F)ccc2cc(O)cc(-c3ncc4c(N5CC6CCC(C5)N6)nc(OCCN5CCC(COc6cc(C(C(=O)N7C[C@H](O)C[C@H]7C(=O)N[C@@H](C)c7ccc(-c8scnc8C)cc7)C(C)C)on6)CC5)nc4c3F)c12 (stereo in doubt) [Example 35] = 467 nM

INPUT: Test system KRas G12D fused to HiBiT peptide (Homo sapiens, UniProt P01116, G12D); read-out DC50; what value for Cc1ncsc1-c1ccc([C@H](C)NC(=O)[C@@H]2C[C@@H](O)CN2C(=O)[C@@H](NC(=O)CCOCCCN2CCC[C@H]2COc2nc(N3CC4CCC(C3)N4)c3cc(C(F)(F)F)c(-c4ccc(F)c5sc(N)c(C#N)c45)c(F)c3n2)C(C)(C)C)cc1 [Example 91] ?
OUTPUT: 23 nM

INPUT: I'm curious: which DC50 was measured for CC(C)[C@@H](C(=O)N1C[C@H](O)C[C@H]1C(=O)N[C@@H](C)c1ccc(-c2c(F)cc(F)cc2F)cc1)c1cc(OCC2CCN(CCOc3nc(N4CC5CCC(C4)N5)c4cc(Cl)c(-c5ccc(F)c6sc(N)c(C#N)c56)c(F)c4n3)CC2)no1 [Example 71] tested on KRas G12D fused to HiBiT peptide (Homo sapiens, UniProt P01116, G12D)?
OUTPUT: 582 nM

INPUT: // fetch KRas G12D fused to HiBiT peptide (Homo sapiens, UniProt P01116, G12D) DC50 for CC(C)[C@@H](C(=O)N1C[C@H](O)C[C@H]1C(=O)N[C@@H](C)c1ccc(-c2c(F)cccc2F)cc1)c1cc(OCC2CCN(CCOc3nc(N4CC5CCC(C4)N5)c4cc(C(F)(F)F)c(-c5ccc(F)c6sc(N)c(C#N)c56)c(F)c4n3)CC2)no1 [Example 18]
OUTPUT: 247 nM
